Test: Selectivity index, ratio of IC50 for CHO cells to IC50 for chloroquinone-sensitive Plasmodium falciparum D10
Details: hamster, CHO cells versus Plasmodium falciparum D10

{"columns": ["Smiles record", "selectivity ratio"],
 "data": [
  ["CCc1ccc(CCCc2ccc(CN3CCCCC3)c(O)c2)cc1", 138],
  ["CCc1ccc(C(=O)/C=C/c2ccc(CN3CCCCC3)c(O)c2)cc1", 47]
]}

----------
Test system: Plasmodium falciparum
Experiment: Antiplasmodial activity chloroquinone-sensitive Plasmodium falciparum NF54 by parasite lactate dehydrogenase assay
Type: functional, organism-based
Settings: Plasmodium falciparum, NF54
Lab note: anything with IC50 below 0.06 µM is marked TRUE; values at 0.06 µM or higher are marked FALSE.

{"columns": ["Smiles record", "Measured on", "Assigned class"],
 "data": [
  ["Oc1cc(CCCc2ccc(-c3ccccc3)cc2)ccc1CN1CCCCC1", "Plasmodium falciparum", "FALSE"],
  ["Oc1cc(CCCc2ccccc2)ccc1CN1CCCCC1", "Plasmodium falciparum", "FALSE"],
  ["CCc1ccc(CN2CCCCC2)c(O)c1", "Plasmodium falciparum", "FALSE"],
  ["Oc1cc(CCCc2cccs2)ccc1CN1CCCCC1", "Plasmodium falciparum", "TRUE"],
  ["Oc1cc(CCCc2ccccc2)ccc1CN1CCOCC1", "Plasmodium falciparum", "FALSE"],
  ["Oc1cc(CCCc2ccccc2)ccc1CN1CCNCC1", "Plasmodium falciparum", "FALSE"],
  ["Oc1cc(CCCc2ccc3ccccc3c2)ccc1CN1CCCCC1", "Plasmodium falciparum", "TRUE"],
  ["NC(=O)c1ccc(CCCc2ccccc2)cc1", "Plasmodium falciparum", "FALSE"],
  ["c1ccc(CN2CCCCC2)cc1", "Plasmodium falciparum", "FALSE"]
]}

----------
pIC50 values for the compounds below.
Tested on: Plasmodium falciparum
Test: Antiplasmodial activity chloroquinone-resistant Plasmodium falciparum Dd2 by parasite lactate dehydrogenase assay
Assay type: functional, organism-based
pIC50: −log10 of the molar value.
Endpoint name: pIC50

{"columns": ["Smiles record", "Endpoint result"],
 "data": [
  ["Oc1ccc(CCCc2ccc(C(F)(F)F)cc2)cc1CN1CCCCC1", 7.52],
  ["COc1ccc(CCCc2cc(O)c(CN3CCCCC3)cc2CN2CCCCC2)cc1", 7.10],
  ["Cc1ccc(CCCc2ccc(CN3CCCCC3)c(O)c2)cc1", 6.57],
  ["O=C(/C=C/c1ccc(CN2CCCCC2)c(O)c1)c1ccc(Br)cc1", 6.68],
  ["O=C(/C=C/c1ccc(O)c(CN2CCCCC2)c1)c1ccc(C(F)(F)F)cc1", 6.70],
  ["O=C(/C=C/c1ccc(CN2CCCCC2)c(O)c1)c1ccc(F)cc1", 6.15],
  ["Cl.Oc1cc(CCCc2ccccc2)ccc1CN1CCCCC1", 7.52],
  ["COc1ccc(CCCc2ccc(CN3CCCCC3)c(O)c2)cc1.Cl", 7.15],
  ["Cl.Oc1cc(CCCc2ccc(F)cc2)ccc1CN1CCCCC1", 7.70],
  ["O=C(CCc1ccc(CN2CCCCC2)c(O)c1)c1cccs1", 6.57],
  ["CCc1ccc(C(=O)/C=C/c2ccc(CN3CCCCC3)c(O)c2)cc1", 6.68]
]}

----------
selectivity ratio values for the compounds below.
Assay: Selectivity index, ratio of IC50 for CHO cells to IC50 for chloroquinone-sensitive Plasmodium falciparum D10
Assay type: toxicity, cell-based
Conditions: hamster, CHO cells versus Plasmodium falciparum D10; read-out: Ratio IC50

{"columns": ["Smiles record", "selectivity ratio"],
 "data": [
  ["O=C(/C=C/c1ccc(O)c(CN2CCCCC2)c1)c1ccc(C(F)(F)F)cc1", 49],
  ["O=C(/C=C/c1ccc(CN2CCCCC2)c(O)c1)c1ccc(F)cc1", 796],
  ["COc1ccc(C(=O)/C=C/c2ccc(CN3CCCCC3)c(O)c2)cc1", 237],
  ["Cc1ccc(CCCc2ccc(CN3CCCCC3)c(O)c2)cc1", 56],
  ["O=C(/C=C/c1ccc(CN2CCCCC2)c(O)c1)c1ccc(Br)cc1", 50],
  ["Cl.Oc1cc(CCCc2ccc(F)cc2)ccc1CN1CCCCC1", 5830],
  ["Cl.Oc1cc(CCCc2ccccc2)ccc1CN1CCCCC1", 7030],
  ["COc1ccc(CCCc2cc(O)c(CN3CCCCC3)cc2CN2CCCCC2)cc1", 3510],
  ["O=C(CCc1ccc(CN2CCCCC2)c(O)c1)c1cccs1", 895]
]}
